Test target: T1, recombinant human domain 1-3His6 of the cation-independent mannose-6-phosphate receptor (human, UniProt P11717 41-467)
T1 construct: Biotinylated (NHS-PEG4-biotin) for BLI; Glycosylated; also called hDom1-3His6; hCI-M6PRD1-D3
Assay explanation: BLI exp 2, dissoc pH 6
Readings of koff for the listed binders
Kindly provide the numeric value in s⁻¹ only, without the unit symbol.

anti-CI-M6PR VHH5 (VHH, His6-tagged; made in Pichia pastoris, later also in E. coli WK6) VHH: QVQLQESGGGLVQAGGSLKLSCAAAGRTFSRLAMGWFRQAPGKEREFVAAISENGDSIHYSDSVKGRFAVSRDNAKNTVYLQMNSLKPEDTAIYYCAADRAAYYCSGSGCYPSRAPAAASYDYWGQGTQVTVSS	0.00029
anti-CI-M6PR VHH6 (VHH, His6-tagged; made in E. coli) VHH: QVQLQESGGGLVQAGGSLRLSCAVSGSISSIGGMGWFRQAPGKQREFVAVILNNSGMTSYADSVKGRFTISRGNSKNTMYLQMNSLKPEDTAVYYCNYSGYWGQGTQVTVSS	0.00227

We now examine a further binder.
# input What measured koff goes with anti-CI-M6PR VHH11 (VHH, His6-tagged; made in Pichia pastoris) VHH: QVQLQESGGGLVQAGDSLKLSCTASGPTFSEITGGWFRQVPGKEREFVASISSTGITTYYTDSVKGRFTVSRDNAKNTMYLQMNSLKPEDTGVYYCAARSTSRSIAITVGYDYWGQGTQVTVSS ?
# output 0.00665
